- Assayed system: CDK4/cyclin D3 (Homo sapiens)
- Construct: purchased Carna
- Assay procedure: In vitro biochemical kinase activity assay for CDK4/cyclin D3 (HTRF)
- Condition: data marked with *: 1 mM ATP in Step 1
Property measured: IC50 (nM)

[
  {
    "Molecule": "CCN1CCN(Cc2ccc(Nc3ncc(Cl)c(C#Cc4cnc(C(C)O)n4C(C)C)n3)nc2)CC1 (stereo not shown)",
    "IC50, nM": 2.07
  }
]

P: CCN1CCC(c2ccc(Nc3ncc(Cl)c(C#Cc4cnc(C(C)(C)O)n4C(C)C)n3)nc2)CC1
Q: CC(=O)N1CCN(Cc2ccc(Nc3ncc(Cl)c(C#Cc4cnc(CN5CCC[C@H](O)C5)n4C(C)C)n3)nc2)CC1
R: CC(C)n1c(C#Cc2nc(N[C@@H]3CCOC[C@H]3O)ncc2Cl)cnc1CN1CCC[C@@H](C#N)C1
Ascending by IC50, please: list the molecules accordingly. Answer format: list of labels, ordered as asked.
P, R, Q

====

- Assayed system: CDK4/cyclin D3 (Homo sapiens)
- Construct: purchased Carna
- Assay procedure: In vitro biochemical kinase activity assay for CDK4/cyclin D3 (HTRF)
- Condition: data marked with *: 1 mM ATP in Step 1
pIC50: −log10 of the molar value.
Property measured: pIC50

Here is how some compounds turned out for pIC50.
[
  {
    "Record smiles": "CC(C)n1c(C#Cc2nc(N[C@@H]3CCOC[C@H]3O)ncc2Cl)cnc1CN1[C@@H](C)COC[C@@H]1C",
    "Property measured": "pIC50",
    "Experimental result": 7.70
  },
  {
    "Record smiles": "CC(C)n1c(C#Cc2nc(N[C@@H]3CCOC[C@H]3O)ncc2Cl)cnc1C1CC1",
    "Property measured": "pIC50",
    "Experimental result": 7.58
  },
  {
    "Record smiles": "Cc1ncc(C#Cc2nc(N[C@@H]3CCOC[C@H]3O)ncc2Cl)n1C(C)C",
    "Property measured": "pIC50",
    "Experimental result": 7.77
  },
  {
    "Record smiles": "CCN1CC2(C1)CN(c1ccc(Nc3ncc(Cl)c(C#Cc4cnc(C(C)(C)O)n4C(C)C)n3)nc1)C2",
    "Property measured": "pIC50",
    "Experimental result": 8.60
  },
  {
    "Record smiles": "CCN1CC2(C1)CN(c1ccc(Nc3ncc(F)c(C#Cc4cnc(C)n4C(C)C)n3)nc1)C2",
    "Property measured": "pIC50",
    "Experimental result": 8.01
  }
]

A: CCN1CC2(C1)CN(c1ccc(Nc3ncc(F)c(C#Cc4cnn(C)c4C(C)(C)O)n3)nc1)C2
B: CC(C)n1c(C#Cc2nc(N[C@@H]3CCOC[C@H]3O)ncc2Cl)cnc1[C@H](C)N1CCC[C@H](O)C1
Kindly compare A with B and tell me which has the lower pIC50 figure. The response must carry the label of the picked entry.
A
(A: 5.54, B: 6.74)

====

- Assayed system: CDK4/cyclin D3 (Homo sapiens)
- Construct: purchased Carna
- Assay procedure: In vitro biochemical kinase activity assay for CDK4/cyclin D3 (HTRF)
- Condition: data marked with *: 1 mM ATP in Step 1
Property measured: IC50 (nM)

P: CCN1CCN(Cc2ccc(Nc3ncc(Cl)c(C#Cc4cnc(C(C)(C)O)n4C(C)C)n3)nc2F)CC1
Q: CC(C)n1c(C#Cc2nc(N[C@@H]3CCOC[C@H]3O)ncc2Cl)cnc1CC1(N)CCCC1
R: CC(C)n1c(C#Cc2nc(Nc3ccc(N4CC5(CN(C)C5)C4)cn3)ncc2Cl)cnc1CN1CCC[C@H](O)C1
S: CC(C)n1c(C#Cc2nc(N[C@@H]3CCOC[C@H]3O)ncc2Cl)cnc1C1CCO1 (stereo partly shown)
Method: rank(items above, key=IC50, ascending=True) Answer format: list of labels, ordered as asked.
R, P, Q, S
(R: 2.28 nM, P: 7.44 nM, Q: 23.2 nM, S: 179 nM)

====

- Assayed system: CDK4/cyclin D3 (Homo sapiens, UniProt P11802)
- Construct: purchased Carna
- Sequence (P11802 whole entry): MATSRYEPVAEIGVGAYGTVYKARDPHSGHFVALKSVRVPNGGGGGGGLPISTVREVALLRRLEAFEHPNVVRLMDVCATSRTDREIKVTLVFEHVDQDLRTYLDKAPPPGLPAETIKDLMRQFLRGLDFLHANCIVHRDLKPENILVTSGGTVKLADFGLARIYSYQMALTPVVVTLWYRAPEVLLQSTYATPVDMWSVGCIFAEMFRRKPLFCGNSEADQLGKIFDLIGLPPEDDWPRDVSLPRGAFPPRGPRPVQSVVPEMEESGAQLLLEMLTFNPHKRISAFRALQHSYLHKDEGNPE
- Sequence (P30281 whole entry partner): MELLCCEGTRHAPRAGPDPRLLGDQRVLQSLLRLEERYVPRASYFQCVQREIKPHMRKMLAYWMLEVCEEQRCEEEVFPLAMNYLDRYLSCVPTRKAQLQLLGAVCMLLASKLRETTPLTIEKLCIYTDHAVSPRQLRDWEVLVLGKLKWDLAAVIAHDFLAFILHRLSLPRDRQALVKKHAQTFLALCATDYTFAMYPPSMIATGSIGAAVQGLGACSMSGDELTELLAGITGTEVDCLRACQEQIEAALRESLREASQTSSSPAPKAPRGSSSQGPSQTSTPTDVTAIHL
- Assay procedure: In vitro biochemical kinase activity assay for CDK4/cyclin D3 (HTRF)
- Condition: unmarked data: 80 µM ATP in Step 1
Property measured: IC50 (nM)

a: CC(C)n1c(C#Cc2nc(N[C@@H]3CCOC[C@H]3O)ncc2Cl)cnc1CN(C)C
b: CC(C)n1c(C#Cc2cc(N[C@@H]3CCOC[C@H]3O)ncc2Cl)cnc1CN1CCC[C@H](O)C1
c: CC(C)n1c(C#Cc2nc(N[C@@H]3CCNC[C@H]3O)ncc2Cl)cnc1C(C)(C)O
d: CC(C)c1c(C#Cc2nc(N[C@@H]3CCOC[C@H]3O)ncc2Cl)cnn1C
Using measured IC50, arrange the compounds from above in descending sequence. Answer format: list of labels, ordered as asked.
c, a, b, d

====

- Assayed system: CDK6/cyclin D3 (Homo sapiens, UniProt Q00534)
- Construct: purchased Carna
- Sequence (Q00534 whole entry): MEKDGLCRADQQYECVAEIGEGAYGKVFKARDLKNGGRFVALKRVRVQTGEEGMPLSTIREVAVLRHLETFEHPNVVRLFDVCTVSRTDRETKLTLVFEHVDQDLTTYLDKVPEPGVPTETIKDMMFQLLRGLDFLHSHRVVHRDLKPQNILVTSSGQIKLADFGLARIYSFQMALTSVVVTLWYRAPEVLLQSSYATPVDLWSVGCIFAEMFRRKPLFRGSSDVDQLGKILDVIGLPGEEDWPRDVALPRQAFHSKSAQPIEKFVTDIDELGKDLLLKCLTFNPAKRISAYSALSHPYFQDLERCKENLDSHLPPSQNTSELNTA
- Sequence (P30281 whole entry partner): as the sequence (P30281 whole entry partner) above
- Assay procedure: In vitro biochemical kinase activity assay for CDK6/cyclin D3 (HTRF)
- Condition: data marked with *: 1 mM ATP in Step 1
Property measured: IC50 (nM)

[
  {
    "Molecule": "CC(C)n1c(C#Cc2nc(Nc3ccc(N4CC5(CN(CC(F)F)C5)C4)cn3)ncc2Cl)cnc1CN1CCC[C@H](O)C1",
    "IC50 [nM]": 87.8
  },
  {
    "Molecule": "CCN1CC2(C1)CN(c1ccc(Nc3ncc(F)c(C#Cc4cnc(C)n4C(C)C)n3)nc1)C2",
    "IC50 [nM]": 59.1
  },
  {
    "Molecule": "[2H]C([2H])(c1ncc(C#Cc2nc(Nc3ccc(CN4CCN(CC)CC4)cn3)ncc2Cl)n1C(C)C)N1CCC[C@H](O)C1",
    "IC50 [nM]": 53
  },
  {
    "Molecule": "CC(C)c1c(C#Cc2nc(N[C@@H]3CCOC[C@H]3O)ncc2Cl)cnn1CC(F)F",
    "IC50 [nM]": 254
  },
  {
    "Molecule": "CC(C)n1c(C#Cc2nc(N[C@@H]3CCOC[C@H]3O)ncc2Cl)cnc1CC1(N)CCCC1",
    "IC50 [nM]": 684
  }
]

1: Cc1ncc(C#Cc2nc(N[C@@H]3CCOC[C@H]3O)ncc2Cl)n1C(C)C
2: CC(C)n1c(C#Cc2nc(N[C@@H]3CCOC[C@H]3O)ncc2Cl)cnc1[C@@H](C)N1CCC[C@H](O)C1
Just curious, which one has the larger IC50 reading, 1 or 2 ? The response must carry the label of the picked entry.
2

A: CC(C)n1c(C#Cc2nc(Nc3ccc(C(=O)N4CCCC4)cn3)ncc2Cl)cnc1C(C)(C)O
B: CCN1CC2(C1)CN(c1ccc(Nc3ncc(Cl)c(C#Cc4cnc(CN5CCC[C@H](O)C5)n4C(C)C)n3)nc1)C2
C: CC(C)c1c(C#Cc2nc(N[C@@H]3CCN(S(C)(=O)=O)C[C@H]3O)ncc2Cl)cnn1C
D: CC(C)n1c(C#Cc2nc(N[C@@H]3CCOC[C@H]3O)ncc2Cl)cnc1CN1CCC[C@@H](C#N)C1
Ascending by IC50, please: list the molecules accordingly. Answer format: list of labels, ordered as asked.
C, A, B, D

I: CC(C)n1c(C#Cc2nc(N[C@@H]3CCN(S(C)(=O)=O)C[C@H]3O)ncc2Cl)cnc1CN1CCC[C@H](O)C1
II: CC(C)n1c(C#Cc2nc(N[C@@H]3CCOC[C@H]3O)ncc2Cl)cnc1C1CCCN1 (stereo partly drawn)
Kindly compare I with II and tell me which has the lower IC50 figure. The response must carry the label of the picked entry.
I
(I: 21 nM, II: 2600 nM)

a: CC1CCN(C)c2ncc(C#Cc3nc(N[C@@H]4CCOC[C@H]4O)ncc3Cl)n21 (stereo partly drawn)
b: CC(C)c1c(C#Cc2nc(Nc3ccc(N4CC5(CN(CCF)C5)C4)cn3)ncc2F)cnn1C
Kindly compare a with b and tell me which has the lower IC50 figure. The response must carry the label of the picked entry.
b
(b: 29.5 nM, a: 275 nM)

====

- Assayed system: CDK6/cyclin D3 (Homo sapiens)
- Construct: purchased Carna
- Assay procedure: In vitro biochemical kinase activity assay for CDK6/cyclin D3 (HTRF)
- Condition: unmarked data: 100 µM ATP in Step 1
pIC50: −log10 of the molar value.
Property measured: pIC50

[
  {
    "Compound": "CC(C)c1c(C#Cc2nc(N[C@@H]3CCOC[C@H]3O)ncc2Cl)cnn1CC(C)(C)O [Example 64]",
    "pIC50": 6.88
  },
  {
    "Compound": "CC(C)c1nn(CC(C)(C)O)cc1C#Cc1nc(N[C@@H]2CCOC[C@H]2O)ncc1Cl [Example 65]",
    "pIC50": 5.92
  },
  {
    "Compound": "CC(C)c1c(C#Cc2nc(Nc3ccc(C4CCN(C)CC4)cn3)ncc2Cl)cnn1C [Example 57]",
    "pIC50": 8.43
  },
  {
    "Compound": "CCN1CCN(Cc2ccc(Nc3ncc(Cl)c(C#Cc4cnc(C(C)(C)O)n4C(C)C)n3)nc2)CC1 [Example 41]",
    "pIC50": 7.96
  },
  {
    "Compound": "CC(C)NCc1ncc(C#Cc2nc(N[C@@H]3CCOC[C@H]3O)ncc2Cl)n1C(C)C [Example 40]",
    "pIC50": 6.52
  }
]

A: CNCc1ncc(C#Cc2nc(N[C@@H]3CCOC[C@H]3O)ncc2Cl)n1C(C)C [Example 35]
B: CC(C)n1c(C#Cc2nc(N[C@@H]3CCOC[C@H]3C)ncc2Cl)cnc1C(C)(C)O [Example 86]
C: CCN1CC2(C1)CN(c1ccc(Nc3ncc(F)c(C#Cc4cnn(C)c4C(C)C)n3)nc1)C2 [Example 61]
D: CC(C)n1c(C#Cc2nc(Nc3ccc(C4CCN(C)CC4)cn3)ncc2Cl)cnc1C(C)(C)O [Example 55]
Ascending by pIC50, please: list the compounds accordingly. Answer format: list of labels, ordered as asked.
B, A, C, D
(B: 5.71, A: 6.88, C: 8.07, D: 8.72)
